- Tested on: Proteus morganii 1518
Would you mind telling me the reported MIC of each entry?
Reply numerically in µg/mL, unit not repeated.

Task: Query (compound): COC1C=COC2(C)Oc3c(C)c(O)c4c(O)c(c5nc(N6CCN(C)CC6)[nH]c5c4c3C2=O)NC(=O)C(C)=CC=CC(C)C(O)C(C)C(O)C(C)C(OC(C)=O)C1C (centres unmarked) ; field requested: MIC
Result: 16

Task: Query (compound): COC1C=COC2(C)Oc3c(C)c(O)c4c(O)c(c5nc(N(C)C)[nH]c5c4c3C2=O)NC(=O)C(C)=CC=CC(C)C(O)C(C)C(O)C(C)C(OC(C)=O)C1C (centres unmarked) ; field requested: MIC
Result: 4

Task: Query (compound): `CCOC(=O)C1CCN(c2nc3c([nH]2)c2c(O)c4c(O)c(C)c5c(c43)C(=O)[C@@](C)(O/C=C/[C@H](OC)[C@@H](C)[C@@H](OC(C)=O)[C@H](C)[C@H](O)[C@H](C)[C@@H](O)[C@@H](C)/C=C/C=C(/C)C(=O)N2)O5)CC1` ; field requested: MIC
Result: 4

Task: Query (compound): CCCN(CCC)c1nc2c3c(O)c4c(O)c(C)c5c(c4c2[nH]1)C(=O)C(C)(OC=CC(OC)C(C)C(OC(C)=O)C(C)C(O)C(C)C(O)C(C)C=CC=C(C)C(=O)N3)O5 (centres unmarked) ; field requested: MIC
Result: 8

Task: Query (compound): `CO[C@H]1/C=C/O[C@@]2(C)Oc3c(C)c(O)c4c(O)c(c5nc(N6CCN(Cc7ccccc7)CC6)[nH]c5c4c3C2=O)NC(=O)/C(C)=C\C=C\[C@H](C)[C@H](O)[C@@H](C)[C@@H](O)[C@@H](C)[C@H](OC(C)=O)[C@@H]1C` ; field requested: MIC
Result: 4

Task: Query (compound): CCCC(C)CN1CCN(c2nc3c([nH]2)c2c(O)c4c(O)c(C)c5c(c43)C(=O)[C@@](C)(O/C=C/[C@H](OC)[C@@H](C)[C@@H](OC(C)=O)[C@H](C)[C@H](O)[C@H](C)[C@@H](O)[C@@H](C)/C=C/C=C(/C)C(=O)N2)O5)CC1 (some centres unmarked) ; field requested: MIC
Result: 8

Task: Query (compound): CCC(C)CN1CCN(c2nc3c([nH]2)c2c(O)c4c(O)c(C)c5c(c43)C(=O)[C@@](C)(O/C=C/[C@H](OC)[C@@H](C)[C@@H](OC(C)=O)[C@H](C)[C@H](O)[C@H](C)[C@@H](O)[C@@H](C)/C=C/C=C(/C)C(=O)N2)O5)CC1 (some centres unmarked) ; field requested: MIC
Result: 4

Task: Query (compound): `CO[C@H]1/C=C/O[C@@]2(C)Oc3c(C)c(O)c4c(O)c(c5[nH]c(N6CCN(CCC(C)C)CC6)nc5c4c3C2=O)NC(=O)/C(C)=C\C=C\[C@H](C)[C@H](O)[C@@H](C)[C@@H](O)[C@@H](C)[C@H](OC(C)=O)[C@@H]1C` ; field requested: MIC
Result: 8

---

- System: Proteus morganii 1518
- procedure_summary: Agar dilution MIC in DST agar (Ericsson and Sherris)
- Assay type: cell-based
- measurement_setup: Morganella morganii, 1518, in vitro, read-out: MIC Prot. 1518
experimental_readout: MIC (µg/mL)
Reply numerically in µg/mL, unit not repeated.

Task: Request - read-out MIC | tested on Proteus morganii 1518 | compound `COC(CN(C)c1nc2c([nH]1)c1c(O)c3c(O)c(C)c4c(c32)C(=O)[C@@](C)(O/C=C/[C@H](OC)[C@@H](C)[C@@H](OC(C)=O)[C@H](C)[C@H](O)[C@H](C)[C@@H](O)[C@@H](C)/C=C/C=C(/C)C(=O)N1)O4)OC`
Result: 8

Task: Request - read-out MIC | tested on Proteus morganii 1518 | compound `CO[C@H]1/C=C/O[C@@]2(C)Oc3c(C)c(O)c4c(O)c(c5[nH]c(N(C)CCN(C)C)nc5c4c3C2=O)NC(=O)/C(C)=C\C=C\[C@H](C)[C@H](O)[C@@H](C)[C@@H](O)[C@@H](C)[C@H](OC(C)=O)[C@@H]1C`
Result: 64

Task: Request - read-out MIC | tested on Proteus morganii 1518 | compound `CO[C@H]1/C=C/O[C@@]2(C)Oc3c(C)c(O)c4c(O)c(c5[nH]c(N6CCCCC6)nc5c4c3C2=O)NC(=O)/C(C)=C\C=C\[C@H](C)[C@H](O)[C@@H](C)[C@@H](O)[C@@H](C)[C@H](OC(C)=O)[C@@H]1C`
Result: 4

Task: Request - read-out MIC | tested on Proteus morganii 1518 | compound COC1C=COC2(C)Oc3c(C)c(O)c4c(O)c(c5nc(N(C)C6CCCC6)[nH]c5c4c3C2=O)NC(=O)C(C)=CC=CC(C)C(O)C(C)C(O)C(C)C(OC(C)=O)C1C (stereo not shown)
Result: 4

---

This section lists MIC readings for Proteus morganii 1518.
Reply numerically in µg/mL, unit not repeated.

Task: Query (molecule): `CO[C@H]1/C=C/O[C@@]2(C)Oc3c(C)c(O)c4c(O)c(c5nc(N6CCN(CC7CCCCCC7)CC6)[nH]c5c4c3C2=O)NC(=O)/C(C)=C\C=C\[C@H](C)[C@H](O)[C@@H](C)[C@@H](O)[C@@H](C)[C@H](OC(C)=O)[C@@H]1C` ; field requested: MIC
Result: 8

Task: Query (molecule): COC1C=COC2(C)Oc3c(C)c(O)c4c(O)c(c5nc(N6CCN(CC(C)C)CC6)[nH]c5c4c3C2=O)NC(=O)C(C)=CC=CC(C)C(O)C(C)C(O)C(C)C(OC(C)=O)C1C (stereo not shown) ; field requested: MIC
Result: 4

Task: Query (molecule): `COCCN(CCOC)c1nc2c([nH]1)c1c(O)c3c(O)c(C)c4c(c32)C(=O)[C@@](C)(O/C=C/[C@H](OC)[C@@H](C)[C@@H](OC(C)=O)[C@H](C)[C@H](O)[C@H](C)[C@@H](O)[C@@H](C)/C=C/C=C(/C)C(=O)N1)O4` ; field requested: MIC
Result: 2

Task: Query (molecule): `CO[C@H]1/C=C/O[C@@]2(C)Oc3c(C)c(O)c4c(O)c(c5nc(N6CCN(CC7CCCC7)CC6)[nH]c5c4c3C2=O)NC(=O)/C(C)=C\C=C\[C@H](C)[C@H](O)[C@@H](C)[C@@H](O)[C@@H](C)[C@H](OC(C)=O)[C@@H]1C` ; field requested: MIC
Result: 2

---

Would you mind telling me the reported MIC of each entry?
- System: Pseudomonas aeruginosa K 799/61
- procedure_summary: Agar dilution MIC in DST agar (Ericsson and Sherris)
- Type: cell-based
- measurement_setup: Pseudomonas aeruginosa, K799/61, read-out: MIC Pseu. 799
Reply numerically in µg/mL, unit not repeated.

Task: Query (compound): CO[C@H]1/C=C/O[C@@]2(C)Oc3c(C)c(O)c4c(O)c(c5nc(N6CCN(Cc7ccccc7)CC6)[nH]c5c4c3C2=O)NC(=O)/C(C)=C\C=C\[C@H](C)[C@H](O)[C@@H](C)[C@@H](O)[C@@H](C)[C@H](OC(C)=O)[C@@H]1C [Verbindung 57] ; field requested: MIC
Result: 16

Task: Query (compound): CO[C@H]1/C=C/O[C@@]2(C)Oc3c(C)c(O)c4c(O)c(c5[nH]c(N(C)CCN(C)C)nc5c4c3C2=O)NC(=O)/C(C)=C\C=C\[C@H](C)[C@H](O)[C@@H](C)[C@@H](O)[C@@H](C)[C@H](OC(C)=O)[C@@H]1C [Verbindung 17] ; field requested: MIC
Result: 64

Task: Query (compound): CCCN(CC1CC1)c1nc2c3c(O)c4c(O)c(C)c5c(c4c2[nH]1)C(=O)C(C)(OC=CC(OC)C(C)C(OC(C)=O)C(C)C(O)C(C)C(O)C(C)C=CC=C(C)C(=O)N3)O5 (stereo not shown) [Verbindung 11] ; field requested: MIC
Result: 8

Task: Query (compound): COC1C=COC2(C)Oc3c(C)c(O)c4c(O)c(c5nc(N(C)C)[nH]c5c4c3C2=O)NC(=O)C(C)=CC=CC(C)C(O)C(C)C(O)C(C)C(OC(C)=O)C1C (stereo not shown) [Verbindung 1] ; field requested: MIC
Result: 2

---

- Test system: Pseudomonas aeruginosa K 799/61
- procedure_summary: Agar dilution MIC in DST agar (Ericsson and Sherris)
- Type: cell-based
- measurement_setup: Pseudomonas aeruginosa, K799/61, read-out: MIC Pseu. 799
Would you mind telling me the reported MIC of each entry?
Just so you know, I need the unit written after the number.

Task: Request - read-out MIC | tested on Pseudomonas aeruginosa K 799/61 | compound `C=CCCN1CCN(c2nc3c([nH]2)c2c(O)c4c(O)c(C)c5c(c43)C(=O)[C@@](C)(O/C=C/[C@H](OC)[C@@H](C)[C@@H](OC(C)=O)[C@H](C)[C@H](O)[C@H](C)[C@@H](O)[C@@H](C)/C=C/C=C(/C)C(=O)N2)O5)CC1`
Result: 32 µg/mL

Task: Request - read-out MIC | tested on Pseudomonas aeruginosa K 799/61 | compound COC1C=COC2(C)Oc3c(C)c(O)c4c(O)c(c5nc(N(C)C(C)C)[nH]c5c4c3C2=O)NC(=O)C(C)=CC=CC(C)C(O)C(C)C(O)C(C)C(OC(C)=O)C1C (stereo not shown)
Result: 8 µg/mL

Task: Request - read-out MIC | tested on Pseudomonas aeruginosa K 799/61 | compound CCCC(C)CN1CCN(c2nc3c([nH]2)c2c(O)c4c(O)c(C)c5c(c43)C(=O)[C@@](C)(O/C=C/[C@H](OC)[C@@H](C)[C@@H](OC(C)=O)[C@H](C)[C@H](O)[C@H](C)[C@@H](O)[C@@H](C)/C=C/C=C(/C)C(=O)N2)O5)CC1 (stereo partly shown)
Result: 32 µg/mL

Task: Request - read-out MIC | tested on Pseudomonas aeruginosa K 799/61 | compound `CCOC(=O)C1CCN(c2nc3c([nH]2)c2c(O)c4c(O)c(C)c5c(c43)C(=O)[C@@](C)(O/C=C/[C@H](OC)[C@@H](C)[C@@H](OC(C)=O)[C@H](C)[C@H](O)[C@H](C)[C@@H](O)[C@@H](C)/C=C/C=C(/C)C(=O)N2)O5)CC1`
Result: 16 µg/mL
